tested on: U251 CNS
Your answer must be one of the following: T (active), F (inactive)

Would you please look over these solved cases?
# Compound, Class label
records = [
    ("N#CCN1CCn2c1nsc2=S", "F"),
    ("CC(=O)NCc1cccc(C#Cc2cncnc2Nc2ccc(OCc3cccc(F)c3)c(Cl)c2)c1", "F"),
    ("COc1ccc(-c2nc(/C=C3\\SC(=NCc4ccccc4)NC3=O)c3ccccn23)cc1", "F"),
    ("COC1=C(OC)C(=O)C(SC/C=C(\\C)CCCC(C)CCCC(C)CCCC(C)C)=CC1=O (stereo not drawn)", "F"),
    ("COc1ncnc(NS(=O)(=O)c2ccc(N=C3C(=O)N(CN4CCN(c5c(F)cc6c(=O)c(C(=O)O)cn(C7CC7)c6c5OC)CC4C)c4ccc(Br)cc43)cc2)c1OC (stereo not drawn)", "F"),
]

Tell me the recorded outcome of this test for "c1ccc2cc(-c3n(Cc4ccc5ccccc5n4)c4ccccc4[n+]3Cc3ccc4ccccc4n3)ccc2c1" .
T

Tell me the recorded outcome of this test for CCCCCO/N=C\c1c2c(O)c3c(O)c(C)c4c(c3c1O)C(=O)C(C)(O/C=C\C(OC)C(C)C(OC(C)=O)C(C)C(O)C(C)C(O)C(C)/C=C\C=C(\C)C(=O)N2)O4 (stereo not drawn) .
F

Tell me the recorded outcome of this test for "C[CH2][Sn]([CH2]C)([O]C(=O)c1ccccc1OC)[O][Sn]([CH2]C)([CH2]C)[O]C(=O)c1ccccc1OC" .
F

Tell me the recorded outcome of this test for Cc1cccc2c3c(sc12)C(c1ccc(Cl)cc1)C(C#N)=C(N)O3 (stereo not drawn) .
T

Tell me the recorded outcome of this test for "CC(C)(O)CNc1nc(Nc2ccnc(C(F)(F)F)c2)nc(-c2cccc(C(F)(F)F)n2)n1" .
F

Tell me the recorded outcome of this test for "COC(=O)c1cncc(/C=C/c2c(C)cc(O)cc2C)c1" .
F

Tell me the recorded outcome of this test for O=C(CC1(O)C(=O)N(Cc2ccccc2)c2ccccc21)c1ccc(C(=O)NCC2CCC3(CC2)OOC2(CCCCC2)OO3)cc1 (stereo not drawn) .
F

Tell me the recorded outcome of this test for "c1ccc2c(c1)Nc1ccncc1S2" .
F

Tell me the recorded outcome of this test for "C(=N/N(Cc1ccccc1)Cc1ccccc1)/c1ccccc1" .
F

Tell me the recorded outcome of this test for "NS(=O)(=O)c1ccc(-c2cc3ccncc3cc2OCc2ccccc2)cc1" .
F

Tell me the recorded outcome of this test for "CSc1nc2sc3c(c2c(=O)n1-c1ccc(C(C)C)cc1)CCC(=O)C3" .
F

---

log10 of TGI values by entry
tested on: BT-549 breast; experiment: NCI tumour cell line growth inhibition, 48 h
Where a SMILES comes first, the peptide text is derived from it. The star is where a group is joined. Palmitoyl = CCCCCCCCCCCCCCCC(=O)*
Scale: log10; quantity: TGI; unit before log: µM

# Compound, System under test, log10 of TGI
rows = [
    ("COc1ccc2c(c1)c1c(n2CCN(C)C)-c2ccccc2CC1", "BT-549 breast", 1.49),
    ("CCCCCCCCCCCCCCCC(=O)N1CCCC1C(=O)NCC(=O)NC(Cc1ccccc1)C(=O)NC(C)C(=O)NC(CO)C(=O)NC(Cc1ccc(O)cc1)C(=O)NC(CCCCN)C(=O)NC(CC(C)C)C(=O)NC(CCCN=C(N)N)C(=O)N1CCCC1C(=O)NCC(N)=O (stereo not drawn) (Palmitoyl-PGFASYKLRPG-NH2; configuration not given here)", "BT-549 breast", 1.66),
    ("C[N+](C)(C)CC1CCCC1=O (stereo not drawn)", "BT-549 breast", 0.37),
    ("O=[N+]([O-])c1ccc(C(=S)Nc2ccccc2)o1", "BT-549 breast", 1.15),
    ("C#CCNC(=O)[C@H](CC)[C@H]1CC[C@H](C)[C@H]([C@@H](C)[C@H](O)[C@H](C)C(=O)[C@H](CC)C2O[C@]3(C=CC(=O)[C@]4(CC[C@@](C)([C@H]5CC[C@](O)(CC)[C@H](C)O5)O4)O3)[C@H](C)C[C@@H]2C)O1 (stereo partly drawn)", "BT-549 breast", 0.59),
]

What value of log10 of TGI has been recorded for this entry: "CN(CCNCc1ccccn1)CCNCc1ccccn1"
0.67

What value of log10 of TGI has been recorded for this entry: "CCN(CC)CCCCCCNc1cc(OC)cc2cccnc12"
1.53

---

TGI values by entry
test system: NCI/ADR-RES ovarian; assay: NCI tumour cell line growth inhibition, 48 h

Some solved cases for reference:
# Compound, TGI
records = [
    ("CC1(c2nc3ccccc3[nH]2)CCC(C(=O)O)C(C)(C)O1 (stereo not given)", "> 100 µM"),
    ("Cc1nc2ccc(C(F)(F)F)cc2nc1NCc1ccc(Cl)c(Cl)c1", "47.6 µM"),
    ("COC(=O)[C@]1(NC(=O)c2ccccc2)C[C@H]1C=O", "> 100 µM"),
    ("CN(CCNCc1ccccn1)CCNCc1ccccn1", "> 100 µM"),
    ("C(=N/N(Cc1ccccc1)Cc1ccccc1)/c1ccccc1", "> 100 µM"),
]

Continue with the compound presented below.
What value of TGI has been recorded for this entry: "Oc1c(I)cc(I)c2cccnc12"
8.84 µM

---

system: NCI-H522 lung; experiment: NCI tumour cell line growth inhibition, 48 h
Where a SMILES comes first, the peptide text is derived from it. The star is where a group is joined. Palmitoyl = CCCCCCCCCCCCCCCC(=O)*
Endpoint label: TGI

Some solved cases for reference:
# Molecule, Result
data = [
    ("Cc1cc[n+]2c(c1)-c1cc(C)cc[n+]1CC2", "> 92.9 µM"),
    ("CC12CCC(=O)N1c1ccc([N+](=O)[O-])cc1N2 (stereo not given)", "> 100 µM"),
    ("COc1ncnc(NS(=O)(=O)c2ccc(N=C3C(=O)N(CN4CCN(c5c(F)cc6c(=O)c(C(=O)O)cn(C7CC7)c6c5OC)CC4C)c4ccc(Br)cc43)cc2)c1OC (stereo not given)", "> 50 µM"),
    ("CC12C=CC(=O)C=C1CCC1C3CCC(O)(C(=O)CO)C3(C)CC(O)C12F (stereo not given)", "> 100 µM"),
    ("COC(=O)C1=C(OC(=O)/C(=C/c2ccc(Cl)cc2)c2ccc(Cl)cc2)C(C(=O)OC)[C@]2(O)[C@@H](C(=O)OC)[C@H]1C[C@@H](c1ccccc1)[C@@H]2C(=O)OC (stereo not given in full)", "> 100 µM"),
]

What value of TGI has been recorded for this entry: CCN(CC)c1ccc2c(c1)Oc1ccc(N(CC)CC)cc1C21Oc2ccccc2-c2c1c1ccccc1n2CC (stereo not given)
5.06 µM

What value of TGI has been recorded for this entry: COC1C(N)C(OC2C(Oc3cccc4c(O)c5c(=O)oc6ccc(C)c7c(=O)oc(c34)c5c67)OC(C)C(O)C2(C)O)OC(C)C1O (stereo not given)
0.181 µM

What value of TGI has been recorded for this entry: OCCNC1c2cc(Cl)ccc2-c2c(Cl)cc(Cl)cc21 (stereo not given)
> 100 µM

What value of TGI has been recorded for this entry: "N#Cc1nc(-c2ccco2)oc1N"
> 10 µM

What value of TGI has been recorded for this entry: CC1(c2ccccc2Cl)C(C#N)C(=O)NC(=O)C1C#N (stereo not given)
54 µM

What value of TGI has been recorded for this entry: O=C(O)c1cccc(C(=O)O)c1S(=O)Cc1ccccc1 (stereo not given)
> 100 µM

What value of TGI has been recorded for this entry: CCCCCCCCCCCCCCCC(=O)N1CCCC1C(=O)NCC(=O)NC(Cc1ccccc1)C(=O)NC(C)C(=O)NC(CO)C(=O)NC(Cc1ccc(O)cc1)C(=O)NC(CCCCN)C(=O)NC(CC(C)C)C(=O)NC(CCCN=C(N)N)C(=O)N1CCCC1C(=O)NCC(N)=O (stereo not given) (Palmitoyl-PGFASYKLRPG-NH2; configuration not given here)
46.9 µM

What value of TGI has been recorded for this entry: "CSC(=S)Nc1cccc(C)n1"
> 100 µM

What value of TGI has been recorded for this entry: N#Cc1c2c(c(N)oc1=O)C(c1ccccc1)CC(=O)N2 (stereo not given)
> 100 µM

What value of TGI has been recorded for this entry: "Cc1ccc(NC(=O)c2cc(S(=O)(=O)Nc3n[nH]c(=O)[nH]3)c(SSc3cc(Cl)c(C(=O)Nc4ccc(C)cc4)cc3S(=O)(=O)Nc3n[nH]c(=O)[nH]3)cc2Cl)cc1"
> 100 µM

What value of TGI has been recorded for this entry: C/C(=C\CBr)CCC(Br)C(C)(C)Cl (stereo not given)
> 100 µM

What value of TGI has been recorded for this entry: "CC1=C(O)C2=C(C(=O)C1=O)[C@@H](C)CC[C@@H]2[C@@H](C)C/C=C/C(C)(C)O"
58.8 µM

What value of TGI has been recorded for this entry: "O=[N+]([O-])c1ccc(C(=S)Nc2ccccc2)o1"
3.11 µM

What value of TGI has been recorded for this entry: "Nc1nc(Nc2ccccc2)c2[nH]cnc2n1"
> 100 µM

What value of TGI has been recorded for this entry: C[N+](C)(C)c1ncnc2c1ncn2C1CC(O)C(CO)O1 (stereo not given)
> 100 µM
